// reported Ki for each item listed
# assay-target: type II dehydroquinase from Helicobacter pylori (Helicobacter pylori)
# Sequence (Q48255 whole entry): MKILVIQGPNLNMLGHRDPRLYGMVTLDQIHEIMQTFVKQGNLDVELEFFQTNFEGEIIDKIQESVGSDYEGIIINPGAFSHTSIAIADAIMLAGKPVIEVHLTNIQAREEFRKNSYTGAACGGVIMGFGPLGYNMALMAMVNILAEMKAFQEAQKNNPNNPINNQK
# method-description: Inhibition of type II dehydroquinase from Helicobacter pylori (Ki)
# Assay type: biochemical
# protocol-conditions: pH = 7.0, 25° C., 50 mM Tris•HCl; read-out: Inhibition constants Ki, H. pylori

molecule | units-symbol | Ki
O=C(O)[C@]1(O)C=C(OCc2ccc3sccc3c2)[C@@H](O)[C@H](O)C1 | µM | 0.166
O=C1C(O)C(O)CC(O)(C(=O)O)C1Cc1c(F)c(F)c(F)c(F)c1F (single isomer, unassigned) | µM | 2.6
O=C1C(O)C(O)CC(O)(C(=O)O)C1Cc1ccc2sccc2c1 (single isomer, unassigned) [(2R)-Ia-7] | µM | 0.16

Every entry's value here was drawn from patent US20110313032A1.
